# Target desc: Zap1 (UniProt P47043)
# Sequence: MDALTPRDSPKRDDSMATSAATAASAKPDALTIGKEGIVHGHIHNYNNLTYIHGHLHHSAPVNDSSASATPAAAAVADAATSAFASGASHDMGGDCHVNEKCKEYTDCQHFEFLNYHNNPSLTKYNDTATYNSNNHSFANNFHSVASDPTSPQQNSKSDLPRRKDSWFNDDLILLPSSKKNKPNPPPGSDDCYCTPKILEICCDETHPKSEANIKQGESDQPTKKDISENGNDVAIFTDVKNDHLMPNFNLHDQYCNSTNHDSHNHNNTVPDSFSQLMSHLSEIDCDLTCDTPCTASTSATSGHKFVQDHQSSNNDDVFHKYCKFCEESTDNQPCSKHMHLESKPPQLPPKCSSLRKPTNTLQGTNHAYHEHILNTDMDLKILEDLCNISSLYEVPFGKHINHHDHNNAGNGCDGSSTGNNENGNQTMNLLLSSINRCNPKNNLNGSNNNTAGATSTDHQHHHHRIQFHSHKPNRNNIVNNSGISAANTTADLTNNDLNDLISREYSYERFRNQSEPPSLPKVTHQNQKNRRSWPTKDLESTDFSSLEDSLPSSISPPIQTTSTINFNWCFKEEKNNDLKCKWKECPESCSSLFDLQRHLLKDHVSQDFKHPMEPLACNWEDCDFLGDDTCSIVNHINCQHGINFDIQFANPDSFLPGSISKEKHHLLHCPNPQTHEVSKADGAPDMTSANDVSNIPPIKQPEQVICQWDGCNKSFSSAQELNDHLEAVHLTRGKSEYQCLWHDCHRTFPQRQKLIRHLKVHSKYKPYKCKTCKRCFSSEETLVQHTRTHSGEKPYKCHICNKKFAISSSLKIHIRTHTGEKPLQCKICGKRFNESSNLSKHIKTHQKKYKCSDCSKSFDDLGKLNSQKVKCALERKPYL
# Assay explanation: PBM E-score (8-mer binding enrichment) (E-score (-0.5 to 0.5)); higher = stronger / more preferred TF binding
# Reported conditions: protein concentration: 200 nM; construct: GST-full length
In all, about 33,000 sequences were measured (“E-score (-0.5 to 0.5)”: median about -0.021, highest 2% from about 0.32 on). What follows is part of a selection rich in the highest values, with near analogues and random picks from the rest.
Decide by PBM E-score: equal to or exceeding 0.2 means 1.0, less means 0.0.

Below, 2 sequences whose answers are already recorded.
# Seq, Assigned class
data = [
    ("CAGGGGTC", 1.0),
    ("ACGGTTGC", 0.0),
]

Qu. Textbook exercise: given the entry `ACGGTTAC` , state whether its PBM E-score is greater than or equal to 0.2.
Ans. 1.0

Qu. Textbook exercise: given the entry `AAGGTCAG` , state whether its PBM E-score is greater than or equal to 0.2.
Ans. 1.0

Qu. Textbook exercise: given the entry `AAAGGGTT` , state whether its PBM E-score is greater than or equal to 0.2.
Ans. 1.0

Qu. Textbook exercise: given the entry `GACAAAGC` , state whether its PBM E-score is greater than or equal to 0.2.
Ans. 0.0

Qu. Textbook exercise: given the entry `GGGTACCC` , state whether its PBM E-score is greater than or equal to 0.2.
Ans. 1.0

Qu. Textbook exercise: given the entry `AGTTATAA` , state whether its PBM E-score is greater than or equal to 0.2.
Ans. 0.0

Qu. Textbook exercise: given the entry `AAGGTCCC` , state whether its PBM E-score is greater than or equal to 0.2.
Ans. 0.0

Qu. Textbook exercise: given the entry `AAAGGGTG` , state whether its PBM E-score is greater than or equal to 0.2.
Ans. 1.0

Qu. Textbook exercise: given the entry `CGTTAGCC` , state whether its PBM E-score is greater than or equal to 0.2.
Ans. 0.0

Qu. Textbook exercise: given the entry `CCGACCTC` , state whether its PBM E-score is greater than or equal to 0.2.
Ans. 0.0

Qu. Textbook exercise: given the entry `AGAGGGTC` , state whether its PBM E-score is greater than or equal to 0.2.
Ans. 1.0

Qu. Textbook exercise: given the entry `GTCGTAAC` , state whether its PBM E-score is greater than or equal to 0.2.
Ans. 1.0

Qu. Textbook exercise: given the entry `ACGGTTAT` , state whether its PBM E-score is greater than or equal to 0.2.
Ans. 1.0

Qu. Textbook exercise: given the entry `CCTTGTTA` , state whether its PBM E-score is greater than or equal to 0.2.
Ans. 0.0

Qu. Textbook exercise: given the entry `ATCTAACC` , state whether its PBM E-score is greater than or equal to 0.2.
Ans. 1.0

From: the supplement of paper PMC3334620
